Measured Emax of individual entries
Biological target: FBW7^ARG (RLFBW7) alone (Homo sapiens, UniProt Q969H0, R505L)
Construct: GST (TEV site and flexible linker) (N, cleaved yes); made in house; host or cells: SF9 insect cells (baculovirus)
Sequence (Q969H0 64-707 R505L): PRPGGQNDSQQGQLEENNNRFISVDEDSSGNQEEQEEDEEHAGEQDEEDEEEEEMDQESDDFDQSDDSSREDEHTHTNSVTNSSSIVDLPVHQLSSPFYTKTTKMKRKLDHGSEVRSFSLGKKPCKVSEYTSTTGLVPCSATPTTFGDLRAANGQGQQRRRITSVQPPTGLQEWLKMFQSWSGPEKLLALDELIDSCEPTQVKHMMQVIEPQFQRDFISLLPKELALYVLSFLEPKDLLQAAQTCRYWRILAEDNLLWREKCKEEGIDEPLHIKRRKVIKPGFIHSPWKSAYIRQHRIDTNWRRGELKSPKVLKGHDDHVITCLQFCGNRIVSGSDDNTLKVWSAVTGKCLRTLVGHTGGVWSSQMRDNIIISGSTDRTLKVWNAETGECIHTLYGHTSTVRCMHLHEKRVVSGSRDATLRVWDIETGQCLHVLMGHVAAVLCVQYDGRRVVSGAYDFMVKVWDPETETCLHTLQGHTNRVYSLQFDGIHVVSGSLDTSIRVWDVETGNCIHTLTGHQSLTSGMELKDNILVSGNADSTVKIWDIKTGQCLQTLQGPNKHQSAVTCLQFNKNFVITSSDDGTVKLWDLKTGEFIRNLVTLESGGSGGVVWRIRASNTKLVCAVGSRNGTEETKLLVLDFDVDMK
Sequence (P63208 2-163 partner): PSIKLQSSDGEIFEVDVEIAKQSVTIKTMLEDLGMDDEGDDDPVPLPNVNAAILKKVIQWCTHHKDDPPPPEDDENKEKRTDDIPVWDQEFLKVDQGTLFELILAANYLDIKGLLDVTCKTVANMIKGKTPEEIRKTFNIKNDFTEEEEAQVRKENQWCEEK
Experiment: Counterscreen 1 ALPHAscreen with FBW7^ARG alone (CSRUN1/DCSRUN1)
Format: binding
Details: dose-response counterscreen, read-out: RLFBW7 ACT DCSRUN1 Averaged Max % Response
endpoint: Emax

[
  {
    "compound": "COc1ccc(COC(=O)C2=C(C)NC3=C(C(=O)CC(C)(C)C3)C2c2ccccc2)cc1 (centres unmarked) [SR-01000427708-1]",
    "readoutValue": "1.53%"
  },
  {
    "compound": "Fc1ccccc1CSc1nnnn1-c1ccccc1F [SR-01000432842-1]",
    "readoutValue": "1.65%"
  },
  {
    "compound": "CCSCCOC(=O)C1=C(C)NC2=C(C(=O)CC(c3ccccc3)C2)C1c1ccc(OC)cc1OC (centres unmarked) [SR-01000425645-1]",
    "readoutValue": "0.91%"
  },
  {
    "compound": "Cc1ccc(-c2nnc(N3CCN(C(=O)c4ccco4)CC3)c3ccccc23)cc1 [SR-01000505133-1]",
    "readoutValue": "2.77%"
  },
  {
    "compound": "CCCOc1ccc(C2C(C(=O)OC)=CN(CCOC)C=C2C(=O)OC)cc1 [SR-01000259436-1]",
    "readoutValue": "5.19%"
  },
  {
    "compound": "CCSCCOC(=O)C1=C(C)NC2=C(C(=O)CCC2)C1c1ccc(Br)cc1 (centres unmarked) [SR-01000422432-1]",
    "readoutValue": "0.86%"
  },
  {
    "compound": "COc1cccc(/C=N/c2ccc3[nH]ncc3c2)c1O [SR-01000359514-1]",
    "readoutValue": "0.39%"
  },
  {
    "compound": "COc1ccccc1C1C(C(=O)OC2CCCC2)=C(C)NC2=C1C(=O)CC(c1ccccc1)C2 (centres unmarked) [SR-01000422836-1]",
    "readoutValue": "4.23%"
  },
  {
    "compound": "Cn1nc(CC(=O)Nc2ccc(F)c(Cl)c2)c2ccccc2c1=O [SR-01000589827-1]",
    "readoutValue": "-0.247%"
  },
  {
    "compound": "COc1ccccc1N1C(=O)c2ccc(C(=O)Nc3cc([N+](=O)[O-])ccc3O)cc2C1=O [SR-01000236956-1]",
    "readoutValue": "2.25%"
  },
  {
    "compound": "CCOC(=O)C1CCN(C(=O)Nc2ccc(NC(=O)C3CCN(C(=O)OCC)CC3)cc2)CC1 [SR-01000451467-1]",
    "readoutValue": "1.76%"
  },
  {
    "compound": "Cc1ncn(-c2ccc(Nc3cc(-c4nocc4-c4ccccn4)ccn3)cc2)n1.O=C(O)C(F)(F)F [SR-00000006872-1]",
    "readoutValue": "2.08%"
  },
  {
    "compound": "CC1=C(C(=O)OC(C)C)C(c2ccncc2)C2=C(CC(c3ccccc3)CC2=O)N1 (centres unmarked) [SR-01000217822-2]",
    "readoutValue": "0.88%"
  },
  {
    "compound": "CCOC(=O)c1sc2ncn(CC(=O)NCCC3=CCCCC3)c(=O)c2c1C [SR-01000119175-1]",
    "readoutValue": "0.7%"
  },
  {
    "compound": "CC(=O)NCC(c1cccs1)S(=O)(=O)c1ccc(C)cc1 (centres unmarked) [SR-01000023077-1]",
    "readoutValue": "0.39%"
  },
  {
    "compound": "COc1ccccc1-c1ccc(N2CCN(C(=O)COc3ccccc3)CC2)nn1 [SR-01000920770-1]",
    "readoutValue": "-0.274%"
  },
  {
    "compound": "CC(C)c1ccc(Nc2nccn3c(-c4ccoc4)cnc23)cc1 [SR-01000376943-1]",
    "readoutValue": "-0.189%"
  }
]
